Molecular target: T1, CD27 expressed on the cell surface (HT1080_CD27 cells) (human, UniProt P26842 20-260)
T1 construct: whole, on cells; also called K562_CD27
T1 sequence (looked up): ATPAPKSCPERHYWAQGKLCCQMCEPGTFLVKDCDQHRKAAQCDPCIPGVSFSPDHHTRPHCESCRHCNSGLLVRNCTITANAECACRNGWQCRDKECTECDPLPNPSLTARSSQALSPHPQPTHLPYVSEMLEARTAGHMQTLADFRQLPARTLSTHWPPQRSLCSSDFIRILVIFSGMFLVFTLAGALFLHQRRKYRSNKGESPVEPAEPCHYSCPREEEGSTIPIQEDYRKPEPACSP
Assay: cellular binding assay, HT1080_CD27 cells; further: test concentration or dose not given here
outcome measure: Cellular binding assay [RFU] (RFU)
Lab book: enter the figure in RFU, no units written.

P018.S.01.A.C05 (antibody, V domains shown, V regions on human Ig constant parts; also called AB27_9) VH: QSLEESGGGLVQPEGSLTLTCTASGFSFSSRYYMCWVRQAPGKGLELIACIDTSSGSTWYASWAKGRFTVSKTSSTTVTLQMTSLTAADTATYFCARDLYHENSDGDWWGPGTLVTVSS VL: AFELTQTPSSVEAAVGGTVTIKCQASESINNYLAWYQQKPGQPPKLLIYKASTLASGVSSRFKGSGSGTDFTLTISGVQSDDAATYYCQSYYGASGSGSNVFGGGTEVVVK; 349

Entry P018.S.09.A.A03 (antibody, V domains shown, V regions on human Ig constant parts; also called AB27_144) VH: QEQLVESGGGLVQPEGSLTLTCTASGFSFSSSYYMCWVRQAPGKGPEWIACIYTYSGDTDYANWAKGRFTISKTSSTTVTLQMTSLTAADTATYFCAKAGYGGYGYPIFNLWGPGTLVTVSS VL: AFELTQTPSSVEAAVGGTVTIKCQASQSIGSSLAWYQQKPGQRPKLLMYYVSTLASGVSSRFKGSGSGTEFTLTISDLESADAATYYCQSYYGSGTTVFWAFGGGTEVVVK — recorded Cellular binding assay [RFU] = 360
